- Test system: MS2 coat protein
- EXPERIMENTAL PROTOCOL: apparent KD of MS2 coat protein; designed switch direction (-1 OFF switch, 1 ON switch): -1; higher = weaker reporter binding
- ASSAY SETUP: input ligand: microRNA oligo, concentration not stated
MEASURED PROPERTY: apparent KD of MS2 coat protein (nM)
Answers are plain numbers, in nM.

# annotated cases, reported apparent KD of MS2 coat protein shown
INSERT INTO assay_data (query_sequence, value_reported) VALUES
  ('CCCGCGGGCGCAGGAUAUACAUGAGGAUCACCCAUGUGCCGCGCAAGCGGCAGAGCGGACAACGGGUAGAAGGGCGCCCGCGGG [first try] (Eterna round: R96, puzzle: Exclusion NG 2)', 202),
  ('GCAGCAACUCUAAUCAAUCAAACAUGAGGAUCACCCAUGUCUCAGGAUAUGGUCUGGAUUACAGGCCAGAAGGGAGAAAGCUGC [Eli exng3 - 045] (Eterna round: R96, puzzle: Exclusion NG 3)', 11.1),
  ('UUAUUAUAUGAAGGAUAUACUUAACAUGAGGAUCACCCAUGUGGUGUUGUGAGUGAGUGAGUUUAGUAGAAGGUCAAUGAUUUU [JMF''s solution 72] (Eterna round: R96, puzzle: Exclusion NG 2)', 186),
  ('UUUGUUUAUGUAGGAUAUGCCUGGCGUGCCUUUGCAGAAGGACAUGAGGAUCACCCAUGUAUUGCGGUCUGCGUUCAGAUCGCU [salish99_ExNG1_r4_037] (Eterna round: R96, puzzle: Exclusion NG 1)', 26.8),
  ('UUGAAGUCAUCAGGAUAUAGUUUUAAUGUCAUGCUUAAGUUCUUACAUGAGGAUCACCCAUGUCGCUAGAAGGGAUUAUAGAUU [JR_ExcNG2_Sub078] (Eterna round: R96, puzzle: Exclusion NG 2)', 42.6),
  ('CUCAUGUGAGGAUAUCAGUAGUAAAAAAAUAAAAUUACUACUGAGAAGGCACAUGAGGAUCACCCAUGUGUCUU [EX4 331: Super Stable 31] (Eterna round: R96, puzzle: Exclusion 4)', 13.3),
  ('GCGCCAUCGUGAGAUGGCGUUUCGACAUGAGGAUCACCCAUGUAGGAUAUCGAUUGCUUUGCAGUCGAGAAGGGCGUGAUAAGU [JL ENG3 3.72] (Eterna round: R96, puzzle: Exclusion NG 3)', 74.4),
  ('GUCAGCUCGUCAGGAUAUGAACAUGAGGAUCACCCAUGUAAGAUCAAGCUGCUUCGGCAGCAAGUUCAGAAGGGACGAGCUGAC [ENG2/10-B1] (Eterna round: R96, puzzle: Exclusion NG 2)', 78.7);

Quick batch: apparent KD of MS2 coat protein for everything below.
1. AGAGUGCUGCGAGGAUAUACAUGAGGAUCACCCAUGUAAAAGUGUGAGGCAAAGCCUCACACGAAGUAGAAGGCGCAGUACUCA [Mat - Exclusion NG 2 - Mod of JL - D34] (Eterna round: R96, puzzle: Exclusion NG 2)
2. AGCCUGUAAUCCCUCAGACAUGAGGAUCACCCAUGUGGAUGUAAGGAUAUAGGUGCAAUUGCAAUCUAGAAGGUACGCCGUCAG [Eternabot solution 32] (Eterna round: R96, puzzle: Exclusion NG 3)
3. UAUAUAUAGUAAGGAUAUGUAUUAAUUUUAUGAACAGAAGGUACUGACAUGAGGAUCACCCAUGUUUUAGUGUGGGCAUGUAGA [JMF's solution 91] (Eterna round: R96, puzzle: Exclusion NG 1)
4. GGUAGUUCAGAUCCACAUGAGGAUCACCCAUGUUAAAGGAUCUAGGAUAUCGGGACAUCGAUGCCCGAGAAGGAGACUUUAGCG [Eternabot solution 39] (Eterna round: R96, puzzle: Exclusion NG 3)
5. AACCUGAGGCAAAGCUUUAGGUGUACAUGAGGAUCACCCAUGUAGGAUAUGGUAGGCAAAGCUUACCAGAAGGACAUUAUGAUA [Mat - Exclusion NG 3 - Mod of JL - D52] (Eterna round: R96, puzzle: Exclusion NG 3)
6. AUUGUUUAUGUAGGAUAUGCCUGGCGUGCCUUUGCAGAAGGACAUGAGGAUCACCCAUGUAACAUGAGGCUCACCCAUGUCGCG [salish99_ExNG1_r04_113] (Eterna round: R96, puzzle: Exclusion NG 1)
7. UAAAAUAAACAUGAGGAUCACCCAUGUGAAUGGACUCCUCGGGAGGAUAUUCUGCUUAAAGGUCAGGAGAAGGCCCAUUGCAAU [Isinza] (Eterna round: R96, puzzle: Exclusion NG 3)

Solution:
9.85
23.1
65.5
100
44
184
242

Quick batch: apparent KD of MS2 coat protein for everything below.
1. UGUUGUUACGCAGGAUAUGAGGAUCACCCAUAUAAGGAUAUCGAAAGAGAAGUUCUGAGGAUCACCCAGAAGGGCGGGUUAACA [pwkr exNG2 2xF5 2xFMN.31] (Eterna round: R96, puzzle: Exclusion NG 2)
2. UAUAUAUAGUAAGGAUAUGUAAAUAUUUUAUAAACAGAAGGUACUGACAUGAGGAUCACCCAUGUUUUAGUGUGGGCAUGUAGA [JMF's solution 28] (Eterna round: R96, puzzle: Exclusion NG 1)
3. UUAAUUAAUUAAUUAUAAGAUCAACAUGAGGAUCACCCAUGUGAGGAUAUCAGCUCGUUUAGAGCUGAGAAGGCACAAAUAAUU [ExNG3/16-B2] (Eterna round: R96, puzzle: Exclusion NG 3)

Solution:
[59, 66.2, 45.7]
